experimental target: human dopamine D3 receptor (hD3R) (Homo sapiens, UniProt P35462)
Sequence (P35462 whole entry): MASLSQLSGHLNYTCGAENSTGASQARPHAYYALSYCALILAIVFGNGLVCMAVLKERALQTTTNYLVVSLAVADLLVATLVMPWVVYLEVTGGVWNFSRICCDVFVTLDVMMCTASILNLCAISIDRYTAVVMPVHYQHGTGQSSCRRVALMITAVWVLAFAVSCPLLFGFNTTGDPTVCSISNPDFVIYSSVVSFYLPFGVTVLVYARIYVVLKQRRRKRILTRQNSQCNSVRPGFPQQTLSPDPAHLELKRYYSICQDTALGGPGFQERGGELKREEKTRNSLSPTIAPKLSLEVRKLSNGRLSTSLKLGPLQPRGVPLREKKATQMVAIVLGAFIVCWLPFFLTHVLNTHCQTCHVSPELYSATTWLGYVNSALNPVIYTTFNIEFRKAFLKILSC
test method notes: Human D3 receptor binding assay ([^3H]-7-OH-DPAT)
details: CHO cells expressing hD3R, geometric mean of 2-5 determinations unless marked b (single determination), read-out: hD3 in CHO cells Ki
measurement kind: Ki (nM)

Some molecules with recorded Ki:
Summary line: COc1nc2c(cc1NS(=O)(=O)c1ccc(C)cc1)CCN(CCCF)CC2 [Example 115] , human dopamine D3 receptor (hD3R) (Homo sapiens, UniProt P35462), reported Ki = 14.8

GET /values?item= COc1nc2c(cc1NS(=O)(=O)c1ccc(C3CCC3)nc1)CCN(C)CC2 [Example 113] &system= human dopamine D3 receptor (hD3R) (Homo sapiens, UniProt P35462) returns Ki: 3.94

For the molecule CCN1CCc2cc(NS(=O)(=O)c3ccc(C)cc3C)c(OC)nc2CC1 [Example 65] , the measured Ki on human dopamine D3 receptor (hD3R) (Homo sapiens, UniProt P35462) was 1.54

GET /values?item= CCN1CCc2cc(NS(=O)(=O)c3ccc([C@]4(F)C[C@H](OC)C4)cc3)c(OC)nc2CC1 [Example 96] &system= human dopamine D3 receptor (hD3R) (Homo sapiens, UniProt P35462) returns Ki: 2.79

GET /values?item= COc1nc2c(cc1NS(=O)(=O)c1ccc(C3CCCCO3)cc1)CCN(C)CC2 (centres unmarked) [Example 6] &system= human dopamine D3 receptor (hD3R) (Homo sapiens, UniProt P35462) returns Ki: 0.866

[P] COc1nc2c(cc1NS(=O)(=O)c1ccc([C@@H](C)OC)cc1)CCN(C)CC2 [Example 90]
[Q] COc1nc2c(cc1NS(=O)(=O)c1ccc(OC3CCCC3)nc1)CCN(CCCF)CC2 [Example 122]
[R] COc1nc2c(cc1NS(=O)(=O)c1ccc3c(c1)CCCO3)CCN(C)CC2 [Example 31]
I would appreciate it if you could sort these 3 molecules by Ki, starting from the smallest number. Order the labels as requested and give them as your answer.
R, P, Q
(R: 1.24 nM, P: 1.93 nM, Q: 4.58 nM)

###

experimental target: human dopamine D3 receptor (hD3R) (Homo sapiens)
test method notes: Human D3 receptor binding assay ([^3H]-7-OH-DPAT)
details: CHO cells expressing hD3R, geometric mean of 2-5 determinations unless marked b (single determination), read-out: hD3 in CHO cells Ki
measurement kind: Ki (nM)

[A] COc1nc2c(cc1NS(=O)(=O)c1ccc(C3CC(F)(F)CCO3)cc1)CCN(C)CC2 (single isomer, unassigned) [Example 42]
[B] COc1nc2c(cc1NS(=O)(=O)c1cnc(OC3CCCC3)c(F)c1)CCN(C)CC2
Quick one: lower Ki, A or B ? Return value: the label identifying the chosen record.
B

[I] CCO[C@H]1C[C@@](F)(c2ccc(S(=O)(=O)Nc3cc4c(nc3OC)CCN(C)CC4)cc2)C1
[II] COc1nc2c(cc1NS(=O)(=O)c1ccc(C3CCOC(C)(C)C3)cc1)CCN(C)CC2 (single isomer, unassigned) [Example 86]
Which record shows the lower Ki: the first, I , or the second, II ? # reply format: chosen label
I

[I] COc1nc2c(cc1NS(=O)(=O)c1ccc(C3(C)CCOCC3)cc1)CCN(C)CC2
[II] COc1nc2c(cc1NS(=O)(=O)c1ccc([C@]3(F)C[C@H](C)C3)nc1)CCN(C)CC2
Exercise: compare I and II ; which one has the greater Ki? Reply with the label of the item you choose.
II
(II: 7.46 nM, I: 3.67 nM)

From: patent US10590128B2
